Origin of measurements: patent US11465987B2

- System: WM-164 human melanoma cell line
- test.summary: Cytotoxicity (SRB) assay, WM-164
- Assay type: cell-based
- assay.setup: Homo sapiens, WM164, Table 12; read-out: IC50 ± SEM, WM164 (converted)
experimental.readout: log10 IC50 (log10 of the value in nM)

compound="COc1cc(C(=O)c2c[nH]c(-c3ccc(OCc4ccccc4)cc3)n2)cc(OC)c1OC [12ja]" assayed_target="WM-164 human melanoma cell line" experimental_readout="log10 IC50" reported_result=3.74
compound="COc1ccc(-c2nc(C(=O)c3cc(OC)c(OC)c(OC)c3)c[nH]2)cc1 [12ca]" assayed_target="WM-164 human melanoma cell line" experimental_readout="log10 IC50" reported_result=1.49
compound="COc1cc(C(=O)c2c[nH]c(-c3ccc(F)cc3)n2)cc(OC)c1OC [12ba]" assayed_target="WM-164 human melanoma cell line" experimental_readout="log10 IC50" reported_result=1.86
compound="COc1cc(C(=O)c2c[nH]c(-c3ccc(N(C)C)cc3)n2)cc(OC)c1OC [12ga]" assayed_target="WM-164 human melanoma cell line" experimental_readout="log10 IC50" reported_result=1.90
compound="COc1cc(C(=O)c2c[nH]c(-c3ccc(O)cc3)n2)cc(OC)c1OC [12ka]" assayed_target="WM-164 human melanoma cell line" experimental_readout="log10 IC50" reported_result=3.26
compound="COc1ccc(-c2nc(C(=O)c3ccc(F)cc3)c[nH]2)cc1OC [12hb]" assayed_target="WM-164 human melanoma cell line" experimental_readout="log10 IC50" reported_result=3.15
compound="O=C(c1ccc(F)cc1)c1c[nH]c(-c2ccc(OCc3ccccc3)cc2)n1 [12jb]" assayed_target="WM-164 human melanoma cell line" experimental_readout="log10 IC50" reported_result=1.95
compound="O=C(c1cc(O)c(O)c(O)c1)c1c[nH]c(-c2ccc(Cl)cc2)n1 [13fa]" assayed_target="WM-164 human melanoma cell line" experimental_readout="log10 IC50" reported_result=3.32
compound="COc1cc(C(=O)c2c[nH]c(-c3ccc(Cl)cc3)n2)cc(OC)c1OC [12fa]" assayed_target="WM-164 human melanoma cell line" experimental_readout="log10 IC50" reported_result=1.41
compound="Cc1ccc(-c2nc(C(=O)c3ccc(F)cc3)c[nH]2)cc1 [12db]" assayed_target="WM-164 human melanoma cell line" experimental_readout="log10 IC50" reported_result=2.19
